# credit: the supplement of paper PMC5908809

The entries below come with measured percent inhibition of viability values attached.
System: IMC-1 (IL-2 20 ng/mL);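 note: normalised to DMSO-only wells as negative and benzethonium chloride as positive control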
protocol.text: percent inhibition of viability; higher = more inhibition
setup.conditions: 72 h; 1 nM

molecule	percent inhibition of viability (%)
COc1nc(N)nc2c1ncn2[C@@H]1O[C@H](CO)[C@@H](O)[C@@H]1O [Nelarabine] (max concentration tested 10000 nM)	-3.75
CN(N=O)C(=O)N[C@@H](C=O)[C@@H](O)[C@H](O)[C@H](O)CO [Streptozocin] (max concentration tested 10000 nM)	-3
CO[C@@H](C(=O)N1Cc2[nH]nc(NC(=O)c3ccc(N4CCN(C)CC4)cc3)c2C1)c1ccccc1 [Danusertib] (max concentration tested 10000 nM)	-7.01
Cc1ccc(Nc2nccc(N(C)c3ccc4c(C)n(C)nc4c3)n2)cc1S(N)(=O)=O [Pazopanib] (max concentration tested 10000 nM)	-4.11
C[C@]12C=CC(=O)C=C1CC[C@@H]1[C@@H]2[C@@H](O)C[C@@]2(C)[C@H]1CC[C@]2(O)C(=O)CO [Prednisolone] (max concentration tested 10000 nM)	-3.99
CN(C)CCN1C(=O)c2cccc3cc(N)cc(c23)C1=O [Amonafide] (max concentration tested 10000 nM)	1.06
